EC50 by entry:
test_system: SOS-mediated nucleotide exchange on Ras (Homo sapiens, UniProt Q07889)
Sequence (Q07889 1-1333): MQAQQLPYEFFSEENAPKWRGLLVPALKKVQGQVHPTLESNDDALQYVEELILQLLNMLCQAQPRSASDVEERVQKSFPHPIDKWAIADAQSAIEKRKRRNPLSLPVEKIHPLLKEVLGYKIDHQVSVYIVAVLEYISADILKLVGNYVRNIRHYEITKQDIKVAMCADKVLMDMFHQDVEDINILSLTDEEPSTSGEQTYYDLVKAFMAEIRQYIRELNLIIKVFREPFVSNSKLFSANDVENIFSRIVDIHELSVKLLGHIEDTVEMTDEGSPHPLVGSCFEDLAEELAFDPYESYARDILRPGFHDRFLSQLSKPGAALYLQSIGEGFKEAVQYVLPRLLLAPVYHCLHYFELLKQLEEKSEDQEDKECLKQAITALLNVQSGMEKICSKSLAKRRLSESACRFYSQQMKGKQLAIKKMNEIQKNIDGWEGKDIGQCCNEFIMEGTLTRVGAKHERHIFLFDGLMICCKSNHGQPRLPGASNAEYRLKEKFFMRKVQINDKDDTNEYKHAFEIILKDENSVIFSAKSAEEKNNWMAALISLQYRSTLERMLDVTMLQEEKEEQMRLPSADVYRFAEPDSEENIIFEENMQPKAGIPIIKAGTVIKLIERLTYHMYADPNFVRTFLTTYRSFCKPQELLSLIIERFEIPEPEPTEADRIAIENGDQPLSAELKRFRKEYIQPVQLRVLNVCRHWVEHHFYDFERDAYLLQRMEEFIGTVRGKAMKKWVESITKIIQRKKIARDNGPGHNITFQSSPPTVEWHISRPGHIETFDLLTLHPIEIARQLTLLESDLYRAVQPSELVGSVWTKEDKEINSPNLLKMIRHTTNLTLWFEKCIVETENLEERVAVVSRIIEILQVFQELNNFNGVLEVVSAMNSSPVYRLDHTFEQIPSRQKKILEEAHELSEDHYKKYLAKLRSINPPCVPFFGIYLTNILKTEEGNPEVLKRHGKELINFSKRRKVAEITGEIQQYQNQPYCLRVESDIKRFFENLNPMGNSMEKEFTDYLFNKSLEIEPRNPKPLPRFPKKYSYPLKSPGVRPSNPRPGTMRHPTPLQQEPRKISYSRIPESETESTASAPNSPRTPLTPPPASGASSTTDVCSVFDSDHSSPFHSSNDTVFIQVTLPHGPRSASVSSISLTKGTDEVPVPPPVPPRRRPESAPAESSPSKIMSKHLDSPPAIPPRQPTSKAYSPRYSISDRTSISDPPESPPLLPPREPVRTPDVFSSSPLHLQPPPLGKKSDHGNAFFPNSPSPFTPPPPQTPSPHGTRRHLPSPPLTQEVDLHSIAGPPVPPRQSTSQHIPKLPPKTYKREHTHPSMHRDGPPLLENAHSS
test_protocol: SOS-mediated nucleotide exchange on Ras (BODIPY-GDP fluorescence)
test_context: Ras loaded with BODIPY-GDP, GTP and SOS added; EC50 from derived exchange rates

{"compound": "COc1cccc(CNc2nc(NCc3ccco3)c3ccccc3n2)c1 [Example 12]", "data_value": "5 to 30 µM"}
{"compound": "Cc1cc(F)cc(Nc2nc(N[C@H](C)c3cccs3)c3cccc(CCN)c3n2)c1 [Example 92]", "data_value": "5 to 30 µM"}
{"compound": "CCC[C@@H](Nc1nc(Nc2ccc(F)c(Cl)c2)nc2ccccc12)C1CC1 [Example 36]", "data_value": "1 to 5 µM"}
{"compound": "C[C@@H](Nc1nc(Nc2ccc(F)c(Cl)c2)nc2c(CCN)cccc12)C1CC1 [Example 60]", "data_value": "1 to 5 µM"}
{"compound": "C[C@@H](Nc1nc(Nc2ccc(F)c(Cl)c2)nc2ccccc12)C1CCCC1 [Example 43]", "data_value": "1 to 5 µM"}

Provide only the value of recorded EC50 for Oc1cccc(Nc2nc(NCc3cccs3)c3ccccc3n2)c1 [Example 13]
5 to 30 µM

Supply EC50 value. Item: CC[C@@H](Nc1nc(Nc2ccc(F)c(Cl)c2)nc2c(CN)cccc12)C1CC1 [Example 68]
1 to 5 µM

Note down EC50 recorded for CC[C@@H](Nc1nc(NCC2CCCCC2)nc2c(C3=CCNCC3)cccc12)C1CC1 [Example 125]
< 1 µM

Identify the reported EC50 for the following entry. Clc1ccc(Nc2nc(NCc3ccco3)c3ccccc3n2)cc1Cl [Example 32]
1 to 5 µM
